- TARGET OF ASSAY: T1, GST-RIM2 (KIAA0751) PDZ domain 1 (human)
- T1 construct: Construct RIM2, PDZ domain 1-pGEX-3X; vector sites BamH1/EcoR1, insert sites BglII/MfeI; also called GST-RIM2 PDZ domain; RIM3 (as printed once)
- T1 sequence (chain, as listed by the source): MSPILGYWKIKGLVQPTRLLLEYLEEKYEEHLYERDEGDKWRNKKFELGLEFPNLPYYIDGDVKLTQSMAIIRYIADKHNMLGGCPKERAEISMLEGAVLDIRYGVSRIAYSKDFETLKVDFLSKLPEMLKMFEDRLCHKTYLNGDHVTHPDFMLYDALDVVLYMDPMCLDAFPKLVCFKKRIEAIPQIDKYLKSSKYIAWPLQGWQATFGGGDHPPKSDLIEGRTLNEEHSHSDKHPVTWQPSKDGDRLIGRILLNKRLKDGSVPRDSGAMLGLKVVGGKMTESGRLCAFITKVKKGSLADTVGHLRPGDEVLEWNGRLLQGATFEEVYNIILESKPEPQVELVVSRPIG
- MEASUREMENT DESCRIPTION: modified ELISA, plated GST-RIM2 PDZ domain, biotinylated peptide 0.001-10 µM, curve fit; Relative EC50
Where no end group is shown, it is not given here.
RECORDED ENDPOINT: EC50 (nM)

BINDER	RECORDED ENDPOINT	READOUT UNIT	OP	MEASURED VALUE
YGRKKRRQRRRARGTRLVWV (also: biotinylated, position not given here, TAT plus 9 residues; also called AVC#1844) [YGRKKRRQRRRARGTRLVWV (SEQ ID NO: 160)]	EC50	nM	<	10
YGRKKRRQRRRQDEEETIWA (also: biotinylated (position not given here), TAT plus 9 residues; also called AVC#1828) [YGRKKRRQRRRQDEEETIWA (SEQ ID NO: 144)]	EC50	nM	=	240
YGRKKRRQRRRQDERVETRV (also: biotinylated (position not given here), TAT plus 9 residues; also called AVC#1855) [YGRKKRRQRRRQDERVETRV (SEQ ID NO: 171)]	EC50	nM	=	880
YGRKKRRQRRRARGDRYRIV (also: biotinylated, position not given here, TAT plus 9 residues; also called AVC#1845) [YGRKKRRQRRRARGDRYRIV (SEQ ID NO: 161)]	EC50	nM	=	38
YGRKKRRQRRRARGDRKYIV (also: biotinylated, position not given here, TAT plus 9 residues; also called AVC#1838) [YGRKKRRQRRRARGDRKYIV (SEQ ID NO: 154)]	EC50	nM	=	13
